Listed here are binders together with their documented Kd.
Molecular target: T1, BurrH (Burkholderia rhizoxinica, UniProt E5AV36 1-771)
T1 sequence: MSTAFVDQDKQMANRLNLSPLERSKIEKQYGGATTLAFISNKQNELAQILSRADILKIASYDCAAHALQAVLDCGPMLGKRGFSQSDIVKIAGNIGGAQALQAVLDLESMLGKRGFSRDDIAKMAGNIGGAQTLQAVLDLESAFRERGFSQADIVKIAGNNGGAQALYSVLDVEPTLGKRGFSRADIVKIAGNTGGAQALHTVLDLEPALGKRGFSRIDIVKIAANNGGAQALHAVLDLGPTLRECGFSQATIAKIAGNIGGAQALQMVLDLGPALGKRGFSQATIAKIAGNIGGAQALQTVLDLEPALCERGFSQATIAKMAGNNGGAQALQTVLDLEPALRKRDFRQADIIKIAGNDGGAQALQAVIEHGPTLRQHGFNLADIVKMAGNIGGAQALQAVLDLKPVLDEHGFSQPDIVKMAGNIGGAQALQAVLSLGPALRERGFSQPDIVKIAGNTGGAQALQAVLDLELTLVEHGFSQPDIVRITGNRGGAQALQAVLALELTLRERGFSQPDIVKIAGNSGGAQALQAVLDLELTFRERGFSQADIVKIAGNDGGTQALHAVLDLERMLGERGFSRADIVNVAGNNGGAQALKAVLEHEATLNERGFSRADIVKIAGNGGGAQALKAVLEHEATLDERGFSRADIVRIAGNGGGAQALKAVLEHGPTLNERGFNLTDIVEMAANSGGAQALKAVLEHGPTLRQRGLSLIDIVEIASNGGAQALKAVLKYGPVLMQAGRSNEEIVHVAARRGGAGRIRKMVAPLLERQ
Experiment: ITC; FA and ITC: 25 mM HEPES pH 8, 150 mM NaCl, 0.2 mM TCEP, 298 K; SPR: HBS-EP+ (10 mM HEPES pH 7.4, 150 mM NaCl, 3 mM EDTA, 0.05% P20), 298 K
Settings: protein: recombinant; blunt
result type: Kd (nM)

> print(dat)
                                     binder  result.type  value
1  BurrH RNA target/DNA hybrid (DNA:RNA) RNA: UUAAGAGAAGCAAAUACGUUAUA DNA: TATAACGTATTTGCAACTCTTAA           Kd   1890
2  BurrH DNA target/RNA hybrid (DNA:RNA) DNA: TTAAGAGAAGCAAATACGTTATA RNA: UAUAACGUAUUUGCAACUCUUAA           Kd     56
